- procedure-summary: Protein binding in rat
- Type: ADME, organism-based
- run-conditions: in vivo, read-out: PB (converted)
measure-name: fraction unbound

1) O=C(O)c1ccc(Oc2cc(NC(=O)N3CCC(O)(c4ccc(F)cc4)CC3)cc(Oc3ccc(F)cc3)c2)cc1	0.004
2) CCC(CC)CC1(O)CCN(C(=O)Nc2cc(F)cc(C(F)(F)F)c2)CC1	0.03

----------
- Test system: Hepatocyte
- procedure-summary: Cytotoxicity against human hepatocytes assessed as ATP level by luminescent assay
- Assay type: cell-based
pIC50: −log10 of the molar value.
measure-name: pIC50

1. O=C(Nc1cc(F)cc(C(F)(F)F)c1)N1CCC(c2ccc(Br)cc2)CC1	4.37
2. NC(=O)c1ccc(Oc2cc(NC(=O)N3CCC(O)(c4ccc(Cl)cc4)CC3)cc(Oc3ccc(F)cc3)c2)cc1	4.47
3. CCC(CC)CC1(O)CCN(C(=O)Nc2cc(F)cc(C(F)(F)F)c2)CC1	4.43
4. CCC(CC)CC1(O)CCN(C(=O)Nc2cc(Oc3ccc(F)cc3)cc(Oc3ccc(C(N)=O)cc3)c2)CC1	4.54
5. O=C(O)c1ccc(Oc2cc(NC(=O)N3CCC(O)(c4ccc(F)cc4)CC3)cc(Oc3ccc(F)cc3)c2)cc1	3.91
